molecular target: Glycogen synthase kinase-3 alpha (Homo sapiens); test: Inhibition of full length GST-tagged human recombinant GSK3-alpha using FL-KRREILSRRP[ps]ERYR-NH2 as substrate incubated for 20 hrs
Sequence (P49840 whole entry): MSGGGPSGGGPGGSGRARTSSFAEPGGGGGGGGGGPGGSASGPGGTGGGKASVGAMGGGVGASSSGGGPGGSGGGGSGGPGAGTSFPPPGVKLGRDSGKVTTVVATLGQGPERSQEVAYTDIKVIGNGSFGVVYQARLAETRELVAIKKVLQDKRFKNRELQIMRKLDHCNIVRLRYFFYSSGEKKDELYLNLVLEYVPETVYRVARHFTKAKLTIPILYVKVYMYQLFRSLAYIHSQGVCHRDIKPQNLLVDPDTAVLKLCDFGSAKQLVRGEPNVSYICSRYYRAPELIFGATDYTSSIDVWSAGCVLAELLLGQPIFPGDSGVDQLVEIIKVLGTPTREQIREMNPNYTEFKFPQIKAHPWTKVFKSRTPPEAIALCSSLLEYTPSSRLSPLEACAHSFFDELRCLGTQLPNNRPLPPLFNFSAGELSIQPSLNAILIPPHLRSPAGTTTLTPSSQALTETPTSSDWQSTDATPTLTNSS
Exercise: state measured pIC50 for each of the compounds provided.
Give bare numbers, as −log10 of the molar value.

Sample records with pIC50:
compound	pIC50
COc1cncc(NC(=O)c2ccnn3cc(-c4ccccc4)nc23)c1	8.12
C[C@H]1COCCN1c1ccncc1NC(=O)c1ccnn2cc(-c3ccccc3)nc12	9.49
C[C@H]1CN(c2ccncc2NC(=O)c2ccnn3cc(-c4ccccc4)nc23)CCO1	10.00
COc1ccccc1-c1cn2nccc(C(=O)Nc3cnccc3N3CCOC(C)C3)c2n1 (stereo unspecified)	9.42

Working through the 4 compounds below one at a time, give pIC50 for each.
1. O=C(Nc1cnccc1-c1ccc(F)cc1)c1ccnn2cc(C3CC3)nc12
2. C[C@@H]1CN(c2ccncc2NC(=O)c2ccnn3cc(-c4ccccc4)nc23)CCO1
3. O=C(Nc1cnccc1-c1ccccc1)c1ccnn2c(NCC3CC3)cnc12
4. O=C(Nc1cccnc1)c1ccnn2cc(-c3ccccc3)nc12

Result:
1. 9.36
2. 9.47
3. 8.70
4. 8.17

Provide the reported pIC50 of each entry below, same order.
1. CC1CN(c2ccncc2NC(=O)c2ccnn3cc(-c4ccccc4)nc23)CCO1 (racemic)
2. O=C(Nc1cnccc1N1CCC(F)(F)CC1)c1ccnn2ccnc12
3. O=C(Nc1cccnc1)c1ccnn2c(NCC3CC3)cnc12
4. O=C(Nc1cnccc1N1CCC(F)(F)CC1)c1ccnn2cc(C3CC3)nc12
5. O=C(Nc1cnccc1-c1ccc(F)cc1)c1ccnn2cc(-c3ccccc3)nc12
6. O=C(Nc1cnccc1N1CCC(F)(F)CC1)c1ccnn2c(NCC3CC3)cnc12
7. O=C(Nc1cnccc1N1CCOCC1)c1ccnn2cc(-c3ccccc3)nc12

Result:
1. 9.46
2. 8.62
3. 6.29
4. 9.74
5. 8.96
6. 8.85
7. 9.68

// for each compound below, give its pIC50
1. O=C(Nc1cnccc1OCC(F)(F)F)c1ccnn2cc(-c3ccccc3)nc12
2. CC1CN(c2ccncc2NC(=O)c2ccnn3cc(-c4ccc(C(F)(F)F)cc4)nc23)CCO1 (stereo unspecified)
3. O=C(Nc1cnccc1N1CCCCC1)c1ccnn2cc(-c3ccccc3)nc12
4. O=C(Nc1cnccc1N1CCOCC1)c1ccnn2cc(-c3ccc(C(F)(F)F)cc3)nc12
5. O=C(Nc1cnccc1N1CCC(F)(F)CC1)c1ccnn2cc(-c3ccccc3)nc12
6. CC(C)Oc1ccncc1NC(=O)c1ccnn2cc(-c3ccccc3)nc12

Result:
1. 10.05
2. 9.24
3. 9.62
4. 9.64
5. 9.66
6. 9.39

---

assay: Unbound brain-to-plasma concentration ratio in triple transgenic C57BL6 alzheimer disease mouse model at 30 mg/kg, po measured after 5 hrs; format: ADME, organism-based; details: read-out: K(p,uu,brain)
measurement_name: Kp uu at 5 h
Answers are plain numbers.

Query: Please report the recorded Kp uu at 5 h for CC1CN(c2ccncc2NC(=O)c2ccnn3cc(-c4ccccc4)nc23)CCO1 (racemic) .
Result: 0.34

---

experiment: Solubility of compound in fasted state simulated intestinal fluid of pH 6.5 at 1 mg/ml measured after 18 to 24 hrs by HPLC-UV based analysis; assay type: ADME; settings: time 18-24 hrs
measurement_name: solubility (µg/mL)
Give bare numbers, in µg/mL.

Query: Any idea what solubility was measured for CC1CN(c2ccncc2NC(=O)c2ccnn3cc(-c4ccccc4)nc23)CCO1 (racemic) ?
Result: 21
